Measured remaining binding at 0.1 µM accompanies every entry in the list below.
# TARGET_OF_ASSAY: LRRK2 mutant (G2019S) (Homo sapiens (Human), UniProt Q5S007, G2019S)
# Sequence (Q5S007 whole entry G2019S, looked up): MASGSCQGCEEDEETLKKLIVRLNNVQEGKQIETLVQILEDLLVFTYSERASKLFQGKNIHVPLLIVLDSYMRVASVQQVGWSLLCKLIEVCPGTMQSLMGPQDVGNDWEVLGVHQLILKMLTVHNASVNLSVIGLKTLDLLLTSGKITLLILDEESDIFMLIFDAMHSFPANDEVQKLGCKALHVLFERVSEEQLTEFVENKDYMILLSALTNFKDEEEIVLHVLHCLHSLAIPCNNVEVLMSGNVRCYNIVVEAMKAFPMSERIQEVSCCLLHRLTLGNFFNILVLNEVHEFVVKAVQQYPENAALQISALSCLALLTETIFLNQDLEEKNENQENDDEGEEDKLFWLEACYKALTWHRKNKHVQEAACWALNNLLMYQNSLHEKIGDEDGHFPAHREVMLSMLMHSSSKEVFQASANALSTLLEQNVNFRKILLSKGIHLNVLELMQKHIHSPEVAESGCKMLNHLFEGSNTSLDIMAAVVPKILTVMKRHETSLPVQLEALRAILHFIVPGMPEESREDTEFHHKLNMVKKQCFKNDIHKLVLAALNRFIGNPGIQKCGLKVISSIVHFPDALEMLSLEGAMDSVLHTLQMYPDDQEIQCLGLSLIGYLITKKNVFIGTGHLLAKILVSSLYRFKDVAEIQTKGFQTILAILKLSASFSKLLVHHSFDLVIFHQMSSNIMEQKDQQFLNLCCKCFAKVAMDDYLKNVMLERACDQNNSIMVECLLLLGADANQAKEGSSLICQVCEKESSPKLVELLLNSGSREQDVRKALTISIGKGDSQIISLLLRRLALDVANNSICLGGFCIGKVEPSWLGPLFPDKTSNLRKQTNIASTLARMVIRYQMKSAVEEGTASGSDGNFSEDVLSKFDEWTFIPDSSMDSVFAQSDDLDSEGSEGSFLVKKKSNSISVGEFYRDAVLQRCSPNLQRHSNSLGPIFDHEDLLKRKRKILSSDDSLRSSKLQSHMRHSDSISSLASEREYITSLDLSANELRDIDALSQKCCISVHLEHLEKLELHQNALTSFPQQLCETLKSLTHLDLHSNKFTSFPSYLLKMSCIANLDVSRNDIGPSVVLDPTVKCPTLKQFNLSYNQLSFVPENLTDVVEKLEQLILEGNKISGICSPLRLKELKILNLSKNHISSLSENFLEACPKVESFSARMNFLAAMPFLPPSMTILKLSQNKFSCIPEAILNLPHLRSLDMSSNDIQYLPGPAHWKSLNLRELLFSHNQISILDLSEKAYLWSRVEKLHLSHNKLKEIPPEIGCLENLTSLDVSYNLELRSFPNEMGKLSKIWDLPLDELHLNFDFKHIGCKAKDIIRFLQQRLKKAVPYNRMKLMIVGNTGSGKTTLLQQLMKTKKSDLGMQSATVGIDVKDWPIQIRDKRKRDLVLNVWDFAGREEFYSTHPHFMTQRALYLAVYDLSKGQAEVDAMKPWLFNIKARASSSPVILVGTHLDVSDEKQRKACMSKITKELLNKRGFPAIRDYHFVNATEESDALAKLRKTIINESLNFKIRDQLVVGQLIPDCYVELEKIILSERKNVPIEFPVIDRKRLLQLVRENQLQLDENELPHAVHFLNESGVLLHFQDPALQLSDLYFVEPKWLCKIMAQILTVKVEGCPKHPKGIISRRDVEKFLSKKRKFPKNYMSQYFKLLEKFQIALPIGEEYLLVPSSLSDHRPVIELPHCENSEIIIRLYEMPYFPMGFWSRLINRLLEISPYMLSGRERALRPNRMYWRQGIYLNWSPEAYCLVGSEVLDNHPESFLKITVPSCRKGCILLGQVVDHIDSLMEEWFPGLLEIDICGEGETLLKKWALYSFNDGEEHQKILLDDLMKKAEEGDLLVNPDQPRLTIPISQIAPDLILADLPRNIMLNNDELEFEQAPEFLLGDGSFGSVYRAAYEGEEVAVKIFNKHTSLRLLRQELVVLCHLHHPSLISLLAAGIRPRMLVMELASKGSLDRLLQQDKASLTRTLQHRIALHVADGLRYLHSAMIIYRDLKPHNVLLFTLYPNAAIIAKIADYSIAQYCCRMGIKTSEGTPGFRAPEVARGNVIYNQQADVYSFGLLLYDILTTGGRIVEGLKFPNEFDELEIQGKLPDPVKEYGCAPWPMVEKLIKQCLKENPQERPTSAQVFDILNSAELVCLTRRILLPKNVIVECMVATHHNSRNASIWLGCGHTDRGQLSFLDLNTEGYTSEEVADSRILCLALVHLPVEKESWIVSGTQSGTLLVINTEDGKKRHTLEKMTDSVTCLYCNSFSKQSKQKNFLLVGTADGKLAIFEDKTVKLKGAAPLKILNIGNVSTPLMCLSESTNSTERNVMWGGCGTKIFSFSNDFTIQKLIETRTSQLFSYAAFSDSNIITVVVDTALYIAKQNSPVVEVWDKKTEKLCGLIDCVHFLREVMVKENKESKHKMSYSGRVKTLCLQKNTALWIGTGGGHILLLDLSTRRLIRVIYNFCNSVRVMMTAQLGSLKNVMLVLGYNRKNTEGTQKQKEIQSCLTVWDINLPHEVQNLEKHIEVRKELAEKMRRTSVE
# TEST_DETAILS: Evaluation of inhibitory activity against LRRK2 (affinity bead competition binding), G2019S mutant
# CONDITION_INFO: 100 nM; read-out: Residual active values (%) LRRK2(G2019S)

Problem: Fill in the blank: the reported remaining binding at 0.1 µM of CCS(=O)(=O)N1CC[C@H](Nc2c(Br)cnc3[nH]c(-c4cc(C)n(-c5ccc(C(=O)N6CCOCC6)cc5C)c4C)nc23)C1 [Example 98] is ____.
Result: 8.2%

Continuing:
Problem: Fill in the blank: the reported remaining binding at 0.1 µM of CCS(=O)(=O)N1CC[C@H](Nc2c(Br)cnc3[nH]c(-c4cc(C)n(-c5cc(NS(C)(=O)=O)ccc5C)c4C)nc23)C1 [Example 7] is ____.
Result: 2.3%

Problem: Subsequent entry: CCS(=O)(=O)N1CC[C@H](Nc2c(Br)cnc3nc(-c4cc(C)n(-c5cc(NC(=O)CN6CCN(C)CC6)ccc5C)c4C)[nH]c23)C1 [Example 76]
Result: 0.9%

Problem: Subsequent entry: CCS(=O)(=O)N1CC[C@H](Nc2c(Br)cnc3nc(-c4cc(C)n(-c5cccc(NS(C)(=O)=O)c5)c4C)[nH]c23)C1 [Example 12]
Result: 3.6%

====

Measured IC50 accompanies every entry in the list below.
# TARGET_OF_ASSAY: UniProtKB Q16584
# TEST_DETAILS: Evaluation of inhibitory activity of enzyme units, MLK3 ([γ-33P]-ATP filter assay)
# CONDITION_INFO: read-out: IC50(nM) MLK3
Give just the numeric value; nM need not be written.

Sample answers from the record:
Problem: Fill in the blank: the reported IC50 of `CCS(=O)(=O)N1CC[C@H](Nc2c(Br)cnc3nc(-c4cc(C)n(-c5cccc(NC(=O)CN(C)C)c5C)c4C)[nH]c23)C1` is ____.
Result: 8

Problem: Subsequent entry: `CCN(CC)CCNC(=O)c1ccc(-n2c(C)cc(-c3nc4ncc(Br)c(N[C@H]5CCN(S(=O)(=O)CC)C5)c4[nH]3)c2C)cc1`
Result: 97

Continuing:
Problem: Fill in the blank: the reported IC50 of `CCS(=O)(=O)N1CC[C@H](Nc2c(Br)cnc3[nH]c(-c4cc(C)n(-c5ccc(C(=O)N(C)CCN(C)C)cc5)c4C)nc23)C1` is ____.
Result: 14

====

# TARGET_OF_ASSAY: MLK1 (Homo sapiens (Human), UniProt P80192)
# Sequence (P80192 whole entry, looked up): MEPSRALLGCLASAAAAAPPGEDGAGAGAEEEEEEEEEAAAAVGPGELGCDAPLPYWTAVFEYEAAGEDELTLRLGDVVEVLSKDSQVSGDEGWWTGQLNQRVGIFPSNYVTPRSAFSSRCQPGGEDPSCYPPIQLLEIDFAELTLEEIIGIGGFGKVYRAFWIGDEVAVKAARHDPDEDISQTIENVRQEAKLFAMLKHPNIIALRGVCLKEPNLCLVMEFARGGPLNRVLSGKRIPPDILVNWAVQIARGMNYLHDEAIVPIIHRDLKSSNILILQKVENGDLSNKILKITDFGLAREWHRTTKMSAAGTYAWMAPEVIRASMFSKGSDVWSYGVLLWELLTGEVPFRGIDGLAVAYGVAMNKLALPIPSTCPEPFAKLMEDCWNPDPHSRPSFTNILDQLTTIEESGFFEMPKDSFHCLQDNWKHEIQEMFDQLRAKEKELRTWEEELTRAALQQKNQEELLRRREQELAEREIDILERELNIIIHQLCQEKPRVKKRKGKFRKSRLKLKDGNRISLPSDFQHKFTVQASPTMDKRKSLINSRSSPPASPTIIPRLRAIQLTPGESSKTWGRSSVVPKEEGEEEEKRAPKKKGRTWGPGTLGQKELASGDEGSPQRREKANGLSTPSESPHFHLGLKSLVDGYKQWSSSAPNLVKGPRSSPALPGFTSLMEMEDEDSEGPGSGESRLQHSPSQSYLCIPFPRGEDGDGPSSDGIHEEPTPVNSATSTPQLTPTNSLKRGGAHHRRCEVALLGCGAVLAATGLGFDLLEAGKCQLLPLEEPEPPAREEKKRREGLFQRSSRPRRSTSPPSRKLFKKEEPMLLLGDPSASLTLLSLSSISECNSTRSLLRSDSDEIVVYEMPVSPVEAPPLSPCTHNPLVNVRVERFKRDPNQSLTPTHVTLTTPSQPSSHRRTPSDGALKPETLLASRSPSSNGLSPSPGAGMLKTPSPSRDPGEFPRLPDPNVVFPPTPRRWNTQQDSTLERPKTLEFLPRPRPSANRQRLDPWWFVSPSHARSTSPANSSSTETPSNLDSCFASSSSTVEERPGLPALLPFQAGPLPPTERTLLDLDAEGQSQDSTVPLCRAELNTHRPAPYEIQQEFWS
# TEST_DETAILS: Evaluation of inhibitory activity of enzyme units, MLK1 ([γ-33P]-ATP filter assay)
# Assay type: biochemical
Measured IC50 accompanies every entry in the list below.
Please answer in the form of a number followed by its unit of measurement.

Problem: Fill in the blank: the reported IC50 of `CCS(=O)(=O)N1CC[C@H](Nc2c(Br)cnc3[nH]c(-c4cc(C)n(-c5ccc(C(=O)NCCN6CCN(C)CC6)cc5)c4C)nc23)C1` is ____.
Result: 25 nM

Continuing:
Problem: Fill in the blank: the reported IC50 of `CCS(=O)(=O)N1CC[C@H](Nc2c(Br)cnc3[nH]c(-c4cc(C)n(-c5cc(NS(C)(=O)=O)ccc5C)c4C)nc23)C1` is ____.
Result: 44 nM

Problem: Subsequent entry: `Cc1ccc(C(=O)NCCN(C)C)cc1-n1c(C)cc(-c2nc3ncc(Br)c(Nc4cccc(S(N)(=O)=O)c4)c3[nH]2)c1C`
Result: 145 nM

====

# TARGET_OF_ASSAY: LRRK2 wild-type (Homo sapiens (Human), UniProt Q5S007)
# Sequence (Q5S007 whole entry, looked up): as the sequence (Q5S007 whole entry G2019S, looked up) above, with S2019G counted along it
# TEST_DETAILS: Evaluation of inhibitory activity against LRRK2 (affinity bead competition binding), wild-type
# CONDITION_INFO: 500 nM; read-out: Residual active values (%) LRRK2
Label YES when remaining binding at 0.5 µM is strictly below 4%; at or above that, label NO.

Solved cases (4 shown):
Problem: Consider `Cc1ccc(NC(=O)CN2CCOCC2)cc1-n1c(C)cc(-c2nc3ncc(Br)c(Nc4cccc(S(N)(=O)=O)c4)c3[nH]2)c1C` . Does its remaining binding at 0.5 µM lie strictly below 4%?
Result: NO

Problem: Subsequent entry: `CCS(=O)(=O)N1CC[C@H](Nc2c(Br)cnc3[nH]c(-c4cc(C)n(-c5ccc(C(=O)N6CCOCC6)cc5C)c4C)nc23)C1`
Result: YES

Problem: Subsequent entry: `CCS(=O)(=O)N1CC[C@H](Nc2c(Br)cnc3[nH]c(-c4cc(C)n(-c5cccc(N6CCOCC6)c5)c4C)nc23)C1`
Result: YES

Problem: Subsequent entry: `CCS(=O)(=O)N1CC[C@H](Nc2c(Br)cnc3nc(-c4cc(C)n(-c5cccc(OCCN6CCOCC6)c5)c4C)[nH]c23)C1`
Result: YES

Now for a further compound.
Problem: Consider `CCS(=O)(=O)N1CC[C@H](Nc2c(Br)cnc3[nH]c(-c4cc(C)n(-c5cc(NS(C)(=O)=O)ccc5C)c4C)nc23)C1` . Does its remaining binding at 0.5 µM lie strictly below 4%?
Result: YES

====

# TARGET_OF_ASSAY: MLK1 (Homo sapiens (Human), UniProt P80192)
# TEST_DETAILS: Evaluation of inhibitory activity of enzyme units, MLK1 ([γ-33P]-ATP filter assay)
# Format: biochemical
Label YES when IC50 is strictly below 30 nM; at or above that, label NO.

Problem: Consider `CCS(=O)(=O)N1CC[C@H](Nc2c(Br)cnc3nc(-c4cc(C)n(-c5cccc(OCCOC)c5)c4C)[nH]c23)C1` . Does its IC50 lie strictly below 30 nM?
Result: NO

Problem: Subsequent entry: `CCS(=O)(=O)N1CC[C@H](Nc2c(Br)cnc3nc(-c4cc(C)n(-c5cccc(C(=O)N6CCN(C)CC6)c5)c4C)[nH]c23)C1`
Result: YES

Problem: Subsequent entry: `CCS(=O)(=O)N1CC[C@H](Nc2c(Br)cnc3nc(-c4cc(C)n(-c5cccc(NC(=O)CN6CCN(C)CC6)c5C)c4C)[nH]c23)C1`
Result: YES

Problem: Subsequent entry: `CCS(=O)(=O)N1CC[C@H](Nc2c(Br)cnc3nc(-c4cc(C)n(-c5ccc(C(=O)N6CCN(C)CC6)cc5)c4C)[nH]c23)C1`
Result: NO

Problem: Subsequent entry: `CCS(=O)(=O)N1CC[C@H](Nc2c(Br)cnc3nc(-c4cc(C)n(-c5cccc(NC(=O)CN6CCOCC6)c5)c4C)[nH]c23)C1`
Result: YES

Now for a further compound.
Problem: Consider `CCS(=O)(=O)N1CC[C@H](Nc2c(Br)cnc3nc(-c4cc(C)n(-c5cccc(C(=O)N6CCOCC6)c5C)c4C)[nH]c23)C1` . Does its IC50 lie strictly below 30 nM?
Result: YES

====

Measured log10(IC50) accompanies every entry in the list below.
# TARGET_OF_ASSAY: MLK3 (Homo sapiens (Human), UniProt Q16584)
# Sequence (Q16584 whole entry, looked up): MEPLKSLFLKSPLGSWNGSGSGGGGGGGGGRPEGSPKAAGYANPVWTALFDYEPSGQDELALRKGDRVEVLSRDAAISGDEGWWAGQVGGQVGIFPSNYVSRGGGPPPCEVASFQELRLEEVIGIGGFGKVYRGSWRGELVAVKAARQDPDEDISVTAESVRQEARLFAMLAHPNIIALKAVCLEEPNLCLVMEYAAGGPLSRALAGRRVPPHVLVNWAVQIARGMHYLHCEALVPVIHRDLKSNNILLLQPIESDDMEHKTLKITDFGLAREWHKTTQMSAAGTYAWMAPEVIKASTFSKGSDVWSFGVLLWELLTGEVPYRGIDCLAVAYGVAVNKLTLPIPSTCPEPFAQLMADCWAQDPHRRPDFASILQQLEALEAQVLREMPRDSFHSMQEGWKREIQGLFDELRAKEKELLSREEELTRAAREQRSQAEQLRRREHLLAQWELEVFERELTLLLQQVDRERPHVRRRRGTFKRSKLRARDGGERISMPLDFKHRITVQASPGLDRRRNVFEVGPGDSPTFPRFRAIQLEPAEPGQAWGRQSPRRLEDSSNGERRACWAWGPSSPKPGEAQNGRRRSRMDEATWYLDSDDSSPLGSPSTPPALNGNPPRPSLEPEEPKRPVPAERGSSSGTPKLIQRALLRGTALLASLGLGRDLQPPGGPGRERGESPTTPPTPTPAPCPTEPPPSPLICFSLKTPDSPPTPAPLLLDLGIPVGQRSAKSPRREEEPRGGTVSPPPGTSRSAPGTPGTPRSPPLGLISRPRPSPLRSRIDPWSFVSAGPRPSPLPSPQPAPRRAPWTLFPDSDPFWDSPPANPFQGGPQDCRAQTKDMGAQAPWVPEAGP
# TEST_DETAILS: Evaluation of inhibitory activity of enzyme units, MLK3 ([γ-33P]-ATP filter assay)
# CONDITION_INFO: read-out: IC50(nM) MLK3
Note the log scale: values are log10 of IC50 expressed in nM.

Sample answers from the record:
Problem: Fill in the blank: the reported log10(IC50) of CCS(=O)(=O)N1CC[C@H](Nc2c(Br)cnc3[nH]c(-c4cc(C)n(-c5ccccc5)c4C)nc23)C1 [Example 25] is ____.
Result: 1.41

Problem: Subsequent entry: CCS(=O)(=O)N1CC[C@H](Nc2c(Br)cnc3nc(-c4cc(C)n(-c5cccc(NC(=O)CCN(C)C)c5C)c4C)[nH]c23)C1 [Example 79]
Result: 0.85

Problem: Subsequent entry: Cc1cc(-c2nc3c(Nc4cccc(S(N)(=O)=O)c4)c(Br)cnc3[nH]2)c(C)n1-c1ccc(C(=O)N2CCOCC2)cc1 [Example 27]
Result: 1.30

Problem: Subsequent entry: CCS(=O)(=O)N1CC[C@H](Nc2c(Br)cnc3nc(-c4cc(C)n(-c5cccc(C(=O)N6CCN(C)CC6)c5)c4C)[nH]c23)C1 [Example 68]
Result: 1.20

Continuing:
Problem: Fill in the blank: the reported log10(IC50) of CCS(=O)(=O)N1CC[C@H](Nc2ccnc3nc(-c4cc(C)n(-c5ccc(OCCN6CCOCC6)cc5)c4C)[nH]c23)C1 [Example 53] is ____.
Result: 4.37

Problem: Subsequent entry: CCS(=O)(=O)N1CC[C@H](Nc2c(Br)cnc3nc(-c4cc(C)n(-c5cccc(C(N)=O)c5)c4C)[nH]c23)C1 [Example 20]
Result: 1.15

Problem: Subsequent entry: Cc1cc(-c2nc3c(Nc4cccc(S(N)(=O)=O)c4)c(Br)cnc3[nH]2)c(C)n1-c1ccccc1Cl [Example 31]
Result: 1.54
